Each entry below carries its reported % inhibition.
system: human melanoma cell line A-2058; assay: MTT cell proliferation assay, human melanoma cell line A-2058; assay type: cell-based; details: A-2058, final conc. 200 μg/ml, 24 hr incubation, vs cells only
Give the value, in units of %, as a plain number.

>>> df
                                   compound      property  observed_result
0  O=C(/C=C/c1ccc(O)c(O)c1)OCCc1ccccc1 [CAPE, caffeic acid phenethyl ester, reference compound]  % inhibition            49.43

Here is the next item to consider.
Task: Which % inhibition reading was recorded for the compound CC(=O)OC1C(=O)c2c(O)cc(O)cc2OC1c1ccccc1 (stereo not shown) [Pinobanksin-3-o-acetate, pinobanksin-3-acetate] ?
Output: 61.38
